molecular target: Neuronal acetylcholine receptor; alpha3/beta4 (Homo sapiens, UniProt P30926+P32297); assay: Agonist activity at human alpha3beta4 nAChR expressed in CHO cells assessed as calcium influx by calcium-4 based FLIPR analysis
Sequence (P30926 whole entry): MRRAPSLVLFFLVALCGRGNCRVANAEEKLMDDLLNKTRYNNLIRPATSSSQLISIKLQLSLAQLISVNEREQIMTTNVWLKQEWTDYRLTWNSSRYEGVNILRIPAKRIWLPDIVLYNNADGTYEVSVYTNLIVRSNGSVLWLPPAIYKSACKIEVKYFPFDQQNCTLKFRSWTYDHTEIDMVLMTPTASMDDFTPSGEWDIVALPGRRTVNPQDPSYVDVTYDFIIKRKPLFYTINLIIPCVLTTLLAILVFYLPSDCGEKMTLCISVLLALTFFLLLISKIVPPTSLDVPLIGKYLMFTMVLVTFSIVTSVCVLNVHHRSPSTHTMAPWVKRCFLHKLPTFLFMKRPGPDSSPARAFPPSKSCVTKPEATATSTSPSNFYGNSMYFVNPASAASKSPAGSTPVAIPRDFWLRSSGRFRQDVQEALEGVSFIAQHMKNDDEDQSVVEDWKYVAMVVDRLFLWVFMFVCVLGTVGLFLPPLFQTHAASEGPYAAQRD
Sequence (P32297 whole entry): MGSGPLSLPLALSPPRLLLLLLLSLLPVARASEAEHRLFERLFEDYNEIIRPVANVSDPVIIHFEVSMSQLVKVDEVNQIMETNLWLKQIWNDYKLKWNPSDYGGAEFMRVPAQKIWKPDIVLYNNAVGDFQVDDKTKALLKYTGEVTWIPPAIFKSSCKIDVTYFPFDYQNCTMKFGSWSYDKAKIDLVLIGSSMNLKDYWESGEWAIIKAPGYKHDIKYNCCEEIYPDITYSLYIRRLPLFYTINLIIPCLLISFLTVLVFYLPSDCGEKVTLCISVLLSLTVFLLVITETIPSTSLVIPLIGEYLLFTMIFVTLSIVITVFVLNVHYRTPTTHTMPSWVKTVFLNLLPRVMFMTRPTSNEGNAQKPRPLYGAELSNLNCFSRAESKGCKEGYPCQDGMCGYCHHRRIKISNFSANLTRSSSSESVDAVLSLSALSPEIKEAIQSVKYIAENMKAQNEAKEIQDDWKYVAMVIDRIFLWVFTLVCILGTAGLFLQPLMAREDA
The entries below come with measured pEC50 values attached.
Worth noting: pEC50 values are minus log10 of concentrations stated in mol/L.

Check out these entries, answers already filled in.
So what's the measured pEC50 for this one? C(=C1/CN2CCC1CC2)/c1ccccc1
5.52

State the recorded pEC50 for this entry: c1ccc(C[N+]23CCC(CC2)C(C(c2ccccc2)c2ccccc2)C3)cc1 (stereo not given)
5.05

Read the next record carefully.
# query: pEC50 of entry C(=C1/CN2CCC1CC2)/c1cccnc1
5.70

====

Each entry below lists one item and its recorded Activity value.
molecular target: Neuronal acetylcholine receptor; alpha3/beta4 (Homo sapiens, UniProt P30926+P32297); experiment: Agonist activity at human alpha3beta4 nAChR expressed in CHO cells at 1 uM by electrophysiological analysis relative to acetylcholine; type: cell-based
The reply should be a number in %, with the unit left off.

Looking for the measured Activity of C(CN1CCCCC1)=C(c1ccccc1)c1ccccc1 , can you help?
0.7

More entries:
Name the recorded Activity for c1ccc(C[N+]23CCC(CC2)C(C(c2ccccc2)c2ccccc2)C3)cc1 (configuration not stated) .
1

Please give the measured Activity for this molecule: c1ccc(C(c2ccccc2)[N+]23CCN(CC2)CC3)cc1
0.7

May I ask what Activity has been recorded for c1ccc(C(c2ccccc2)C2CN3CCC2CC3)cc1 (configuration not stated) ?
2

====

biological target: Neuronal acetylcholine receptor; alpha3/beta4 (Homo sapiens, UniProt P30926+P32297); experiment: Non-competitive antagonist activity at human alpha3beta4 nAChR expressed in CHO cells assessed as inhibition of nicotine-induced calcium influx incubated for 30 mins prior to nicotine-induction by calcium-4 based FLIPR analysis; assay type: cell-based
metric-name: pIC50
Remember, pIC50 is on a log scale: it is -log10 of the molar concentration.

I'd like to know its pIC50. The molecule in question is C(CN1CCCCC1)=C(c1ccccc1)c1ccccc1
6.42

If you can, please state the reported pIC50 value of c1ccc(C(c2ccccc2)C2CN3CCC2CC3)cc1 (stereo not drawn) .
6.40

***
# pIC50 lookup, item c1ccc(C[N+]23CCC(CC2)C(C(c2ccccc2)c2ccccc2)C3)cc1 (stereo not drawn)
6.22

====

Reported Ki values follow for various compounds
molecular target: Neuronal acetylcholine receptor; alpha3/beta4 (Homo sapiens, UniProt P30926+P32297); experiment: Displacement of [3H]epibatidine from human alpha3beta4 nAChR expressed in CHO cells after 2 hrs by liquid scintillation counting; type: cell-based
Mention the unit after the number when you answer.

Example results:
Query the reported Ki for Neuronal acetylcholine receptor; alpha3/beta4 (Homo sapiens, UniProt P30926+P32297); item: C(=C1/CN2CCC1CC2)/c1cccnc1
1.6 µM

// fetch Neuronal acetylcholine receptor; alpha3/beta4 (Homo sapiens, UniProt P30926+P32297) Ki for C(=C1/CN2CCC1CC2)/c1ccccc1
2.1 µM

Please tell me: Ki of c1ccc(C(c2ccccc2)C2CN3CCC2CC3)cc1 (configuration not stated) , system Neuronal acetylcholine receptor; alpha3/beta4 (Homo sapiens, UniProt P30926+P32297)?
1.5 µM

Further cases:
Give the reported Ki for N#CC(c1ccccc1)C1CN2CCC1CC2 (configuration not stated) (system: Neuronal acetylcholine receptor; alpha3/beta4 (Homo sapiens, UniProt P30926+P32297)).
2.1 µM

Given the entry c1ccc(C[N+]23CCC(CC2)C(C(c2ccccc2)c2ccccc2)C3)cc1 (configuration not stated) , what Ki was observed with Neuronal acetylcholine receptor; alpha3/beta4 (Homo sapiens, UniProt P30926+P32297)?
2.3 µM

Observed Ki on Neuronal acetylcholine receptor; alpha3/beta4 (Homo sapiens, UniProt P30926+P32297) for c1ccc(C(c2ccccc2)[N+]23CCN(CC2)CC3)cc1 , please.
8.5 µM

Hi! What's the reported Ki for C(CN1CCCCC1)=C(c1ccccc1)c1ccccc1 on Neuronal acetylcholine receptor; alpha3/beta4 (Homo sapiens, UniProt P30926+P32297)?
2.2 µM

====

# reported IC50; entries follow
biological target: Neuronal acetylcholine receptor; alpha3/beta4 (Homo sapiens, UniProt P30926+P32297); experiment: Inhibition of human alpha3beta4 nAChR expressed in CHO cells assessed as inhibition of calcium influx by calcium-4 based FLIPR analysis; type: cell-based
All answers are understood in µM, so give the number only.

Given the molecule c1ccc(C[N+]23CCC(CC2)C(C(c2ccccc2)c2ccccc2)C3)cc1 (configuration not stated) , what is its reported IC50?
0.08

Query (molecule): C(CN1CCCCC1)=C(c1ccccc1)c1ccccc1 ; field requested: IC50
0.1

Given the molecule c1ccc(C(c2ccccc2)C2CN3CCC2CC3)cc1 (configuration not stated) , what is its reported IC50?
0.2

Entry C(=C1/CN2CCC1CC2)/c1ccccc1 : reported IC50 = ?
6

Recorded IC50 for c1ccc(C(c2ccccc2)[N+]23CCN(CC2)CC3)cc1 , please?
15

Look up IC50 for this molecule: C(=C1/CN2CCC1CC2)/c1cccnc1
10

Need IC50 of N#CC(c1ccccc1)C1CN2CCC1CC2 (configuration not stated) , thanks.
23

====

target: Neuronal acetylcholine receptor; alpha3/beta4 (Homo sapiens, UniProt P30926+P32297); assay: Agonist activity at human alpha3beta4 nAChR expressed in CHO cells at 0.1 uM by electrophysiological analysis relative to acetylcholine; assay type: cell-based
# Lookup of reported Activity keyed by entry
Use % as the unit, but write only the number.

Would you mind telling me what Activity value was observed for C(=C1/CN2CCC1CC2)/c1cccnc1 ?
5

====

Emax by entry:
biological target: Neuronal acetylcholine receptor; alpha3/beta4 (Homo sapiens, UniProt P30926+P32297); experiment: Agonist activity at human alpha3beta4 nAChR expressed in CHO cells assessed as calcium influx by calcium-4 based FLIPR analysis relative to nicotine; assay type: cell-based
Dear colleague, please return just the value in %, with no unit written.

Completed entries (count: 4):
Quick check: Emax of C(CN1CCCCC1)=C(c1ccccc1)c1ccccc1 ?
31

Dear colleague, I am looking for the recorded Emax of the following compound: c1ccc(C(c2ccccc2)C2CN3CCC2CC3)cc1 (configuration not stated)
14

Query (compound): C(=C1/CN2CCC1CC2)/c1ccccc1 ; field requested: Emax
25

// returns reported Emax for input c1ccc(C[N+]23CCC(CC2)C(C(c2ccccc2)c2ccccc2)C3)cc1 (configuration not stated)
10

From here, focus on the item given below.
Consider the compound shown here: C(=C1/CN2CCC1CC2)/c1cccnc1 What is its recorded Emax?
31

====

target: Neuronal acetylcholine receptor; alpha3/beta4 (Homo sapiens, UniProt P30926+P32297); test: Agonist activity at human alpha3beta4 nAChR expressed in CHO cells at 10 uM by electrophysiological analysis relative to acetylcholine; assay type: cell-based
Each entry below carries its reported Activity.
Answer format: numeric, % implied, no suffix.

Can you share its Activity? I mean this compound: C(=C1/CN2CCC1CC2)/c1cccnc1
56

Further cases:
Reported Activity, compound C(CN1CCCCC1)=C(c1ccccc1)c1ccccc1 : ____
0.6

Sample c1ccc(C(c2ccccc2)C2CN3CCC2CC3)cc1 (configuration not stated) — what was its Activity?
7

Look at this compound and give its reported Activity. N#CC(c1ccccc1)C1CN2CCC1CC2 (configuration not stated)
6

====

target: Muscarinic acetylcholine receptor M1 (Rattus norvegicus); assay: Antagonist activity at rat muscarinic M1 receptor isolated from brain
Sequence (P08482 whole entry): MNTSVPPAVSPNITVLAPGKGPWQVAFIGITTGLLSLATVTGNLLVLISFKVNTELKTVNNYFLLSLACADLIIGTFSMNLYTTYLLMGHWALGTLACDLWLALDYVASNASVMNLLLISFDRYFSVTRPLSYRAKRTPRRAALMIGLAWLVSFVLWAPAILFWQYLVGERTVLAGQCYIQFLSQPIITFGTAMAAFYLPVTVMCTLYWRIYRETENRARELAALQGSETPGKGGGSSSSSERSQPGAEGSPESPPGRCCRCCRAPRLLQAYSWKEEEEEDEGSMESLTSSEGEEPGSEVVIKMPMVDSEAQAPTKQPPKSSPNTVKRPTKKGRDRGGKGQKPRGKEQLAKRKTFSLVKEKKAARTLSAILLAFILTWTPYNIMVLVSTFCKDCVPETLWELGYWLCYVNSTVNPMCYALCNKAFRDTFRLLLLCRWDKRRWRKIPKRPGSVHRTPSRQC
metric-name: IC50 (nM)
The figure you give is taken to be in nM; do not add the unit.

Fill blank: measured IC50 of the compound C(CN1CCCCC1)=C(c1ccccc1)c1ccccc1 is ____.
75.9

====

target: Neuronal acetylcholine receptor; alpha3/beta4 (Homo sapiens, UniProt P30926+P32297); assay: Agonist activity at human alpha3beta4 nAChR expressed in CHO cells at 1 uM by electrophysiological analysis relative to acetylcholine; format: cell-based
metric-name: Activity (%)
Unit % implied. Number only.

Sample N#CC(c1ccccc1)C1CN2CCC1CC2 (stereo not drawn) — what was its Activity?
2

Consider the compound shown here: C(=C1/CN2CCC1CC2)/c1ccccc1 What is its recorded Activity?
2

More entries:
Reported Activity for C(=C1/CN2CCC1CC2)/c1cccnc1 : what is it?
22

====

Activity by entry:
target: Neuronal acetylcholine receptor; alpha3/beta4 (Homo sapiens, UniProt P30926+P32297); assay: Agonist activity at human alpha3beta4 nAChR expressed in CHO cells at 0.1 uM by electrophysiological analysis relative to acetylcholine; format: cell-based
API: value field is a number in %; no unit string.

Need Activity, item c1ccc(C[N+]23CCC(CC2)C(C(c2ccccc2)c2ccccc2)C3)cc1 (stereo unspecified)
0.5

GET /values?readout=Activity&item= N#CC(c1ccccc1)C1CN2CCC1CC2 (stereo unspecified)
1

Which measured Activity value corresponds to c1ccc(C(c2ccccc2)C2CN3CCC2CC3)cc1 (stereo unspecified) ?
0.5

Please report the recorded Activity for C(=C1/CN2CCC1CC2)/c1ccccc1 .
1

Tell me the measured Activity of c1ccc(C(c2ccccc2)[N+]23CCN(CC2)CC3)cc1 , please.
1

Kindly review the next molecule as well.
Request the reported Activity associated with C(CN1CCCCC1)=C(c1ccccc1)c1ccccc1
0.5
